TARGET_OF_ASSAY: T1, Goat anti-Human Kappa
T1 construct: Positive control; also called biotinylated goat anti-human kappa light chain
EXPERIMENT_SUMMARY: ELISA; positive control; note: test concentration or dose not given here
METRIC_NAME: optical density (OD)

BINDER: 366_F07 (antibody, V domains shown, VH/VL only) VH: EVQLLESGGGLVQPGGSLRLSCAASGFTFSDYSMNWVRQAPGKGLEWVAGINYNSGYTSYADSVKGRFTISRDNSKNTLYLQMNSLRAEDTAVYYCARSANWHDTHLDYWGQGTLVTVSS VL: DIQMTQSPSSLSASVGDRVTITCRASQSIITYLNWYQQKPGKAPKLLIYAATSRASGVPSRFSGSGSGTDFTLTISSLQPEDFATYYCQQSYETPLTFGGGTKVEIK
EXPERIMENTAL_RESULT: 3.47
//
BINDER: 374_A04 (antibody, V domains shown, VH/VL only) VH: EVQLLESGGGLVQPGGSLRLSCAASGFTFSSYSMNWVRQAPGKGLEWVAGINYNGGYTSYADSVKGRFTISRDNSKNTLYLQMNSLRAEDTAVYYCARGATWHDTHLDYWGQGTLVTVSS VL: DIQMTQSPSSLSASVGDRVTITCRASQSILTYLNWYQQKPGKAPKLVIYAATSRASGVPSRFSGSGSGTDFTLTISSLQPEDFATYYCQQSYDTPLTFGGGTKVEIK
EXPERIMENTAL_RESULT: 2.99
//
BINDER: 368_G10 (antibody, V domains shown, VH/VL only) VH: EVQLLESGGGLVQPGGSLRLSCAASGFTFSSYSMHWVRQAPGKGLEWVSSINYNGGYTSYADSVKGRFTISRDNSKNTLYLQMNSLRAEDTAVYYCARGATWHDTHLDYWGQGTLVTVSS VL: DIQMTQSPSSLSASVGDRVTITCRASQSIVSYVNWYQQKPGKAPKLVIYAATSRASGVPSRFSGSGSGTDFTLTISSLQPEDFATYYCQQSYDTPLTFGGGTKVEIK
EXPERIMENTAL_RESULT: 3.45
//
BINDER: 375_B03 (antibody, V domains shown, VH/VL only) VH: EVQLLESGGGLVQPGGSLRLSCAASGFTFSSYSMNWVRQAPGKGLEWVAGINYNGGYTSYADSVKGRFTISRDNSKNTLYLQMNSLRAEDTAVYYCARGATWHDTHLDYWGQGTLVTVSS VL: DIQMTQSPSSLSASVGDRVTITCRASQSILTYLNWYQQKPGKAPKLLIYAATSRASGVPSRFSGSGSGTDFTLTISSLQPEDFATYYCQQSYDSPLTFGGGTKVEIK
EXPERIMENTAL_RESULT: 3.24
//
BINDER: 367_D09 (antibody, V domains shown, VH/VL only) VH: EVQLLESGGGLVQPGGSLRLSCAASGFTFDSYGMNWVRQAPGKGLEWVASINYNGGYKSYADSVKGRFTISRDNSKNTLYLQMNSLRAEDTAVYYCARGATWHDTHLDYWGQGTLVTVSS VL: DIQMTQSPSSLSASVGDRVTITCRASQSILTYLNWYQQKPGKAPKLLIYAATSLASGVPSRFSGSGSGTDFTLTISSLQPEDFATYYCQQSYDNPLTFGGGTKVEIK
EXPERIMENTAL_RESULT: 3.37
